Value source: paper PMC9482650

Target: T1, DLG3_2, Q92796
T1 sequence (Q92796 221-321, limits assumed, looked up): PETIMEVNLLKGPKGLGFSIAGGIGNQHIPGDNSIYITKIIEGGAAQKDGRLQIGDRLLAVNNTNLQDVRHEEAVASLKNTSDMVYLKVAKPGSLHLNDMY
Assay: holdup assay
Parameters: key: below the threshold = too weak to quantify, mostly under pKd 3.1 to 4
Details: plain residues with an end cap or a label only (N-terminal biotin on a linker: ado-ado)
measurement.name: pKd
# print the numeric value only

{"columns": ["binder", "pKd"],
 "data": [
  ["QSGLYESEEL [MYOT, Q9UBF9]", 4.21]
]}

Value of measured pKd for the entry EKCGKEFSEF [PRKACA, P17612] : 4.11

# pKd of KRPEMTSSSV [MUC3A, MUC3B, Q02505;Q9H195] = 4.26

The recorded pKd for entry DTKNYKQTSV [CRIPT, Q9P021] equals 4.61

Value of pKd reported for the binder ILRKSTTTTV [PRR16, Q569H4] is 5.07

Lookup result for QRPYRRGSEI [KCNJ18, B7U540] ; measured pKd: 4.14

Entry under test: NVYGIESVKI [GRIA2, P42262] . Its pKd was 4.19
